Documented activity change, negative = inhibition across a set of compounds
Biological target: FAD-linked sulfhydryl oxidase ALR (Homo sapiens)
Assay: inhibitors of human ALR sulfhydryl oxidase, dose response, biochemical, H2O2 detection, luminescence, cherry-pick (AID 493248)
Conditions: purified ALR, DTT oxidation, H2O2 HRP-luminol luminescence; at 10 µM (top of the series)
About 1,400 (61%) of roughly 2,300 compounds were called active. About 7% were inconclusive and are not listed. The set was probably picked from earlier hits. Not all results are given here. Potency and affinity values are given separately.
// note: answer is a bare numeric in %

C/C(=N\NC(=O)CCCNc1ccc(C)cc1)c1ccccn1
419
Cc1noc(C(=O)N2CCN(c3ccccc3)CC2)c1Cl
-27.4
Cc1ccc(N(C(=O)c2cccs2)C2C=CS(=O)(=O)C2)cc1 (centres undefined)
-56.3
CCCN1C(=O)c2ccc(C(=O)Nc3ccccc3C(=O)O)cc2C1=O
-23.6
O=C(N/N=C1/CCSC1)c1cc(Br)ccc1O
-17.6

INPUT: Consider the compound shown here: Cc1cc2nc3ccc(N(C)C)cc3nc2cc1N What is its recorded activity change, negative = inhibition?
OUTPUT: -98.1

INPUT: Consider the compound shown here: CC(=O)Nc1ccc(S(=O)(=O)NNC(=O)c2cccc(Cl)c2)cc1 What is its recorded activity change, negative = inhibition?
OUTPUT: -37.6

INPUT: Consider the compound shown here: Cc1ccc2[nH]cc(CCNC(=O)c3cccnc3)c2c1 What is its recorded activity change, negative = inhibition?
OUTPUT: -59.6

----------
Documented activity change, negative = inhibition across a set of compounds
Molecular target: FAD-linked sulfhydryl oxidase ALR (Homo sapiens)
Experiment: inhibitors of human ALR sulfhydryl oxidase, dose response, biochemical, H2O2 detection, luminescence, cherry-pick (AID 493248)
Conditions: purified ALR, DTT oxidation, H2O2 HRP-luminol luminescence; at 10 µM (top of the series)
In all, about 2,300 compounds went through this assay and about 1,400 (61%) were called active. Inconclusive results (about 7%) are left out. The set was probably picked from earlier hits. The list is a sample of the results. Measured potencies and affinities stand elsewhere.
// note: answer is a bare numeric in %

Some solved entries appear below for comparison.
NNC(=O)c1cc(O)c(O)c(O)c1
8.57
CN1C(=O)C2C(c3ccc(N(C)C)cc3)=NN(Cc3ccccc3)C2C1=O (stereo unspecified)
-0.925

INPUT: Consider the compound shown here: Fc1ccc(-n2c(-c3ccc4c(c3)OCO4)n[nH]c2=S)cc1Cl What is its recorded activity change, negative = inhibition?
OUTPUT: -56.2

INPUT: Consider the compound shown here: Cc1nn(C)c(Sc2ccccc2N)c1[N+](=O)[O-] What is its recorded activity change, negative = inhibition?
OUTPUT: -39.9

INPUT: Consider the compound shown here: Cc1ccc(-n2[nH]c(C)c(/C=N/NC(=O)c3ccc(O)cc3O)c2=O)cc1 What is its recorded activity change, negative = inhibition?
OUTPUT: -40.4

INPUT: Consider the compound shown here: CCSc1nnc(NC(=O)C2CCCN(S(=O)(=O)c3cnc[nH]3)C2)s1 (stereo unspecified) What is its recorded activity change, negative = inhibition?
OUTPUT: 4.79

INPUT: Consider the compound shown here: Cc1ccc(N(C)S(=O)(=O)c2cccc(C(=O)Nc3nnc(C4CC4)s3)c2)cc1 What is its recorded activity change, negative = inhibition?
OUTPUT: 41.9

INPUT: Consider the compound shown here: CC(=C\c1ccccc1)/C=C1/SC(=O)N(CCCC(=O)Nc2ccc(C(=O)O)cc2)C1=O What is its recorded activity change, negative = inhibition?
OUTPUT: 1.78

INPUT: Consider the compound shown here: Cc1cc(C(=O)CN2C(=O)CCC2=O)c(C)n1Cc1ccccc1 What is its recorded activity change, negative = inhibition?
OUTPUT: -73.3

INPUT: Consider the compound shown here: CN(CC(=O)NC1CCCCC1)S(=O)(=O)c1cccc2cccnc12 What is its recorded activity change, negative = inhibition?
OUTPUT: 5.38

INPUT: Consider the compound shown here: C/C(=N\Nc1ccccn1)c1ccc(OC(F)F)cc1 What is its recorded activity change, negative = inhibition?
OUTPUT: 30.6

----------
Biological target: FAD-linked sulfhydryl oxidase ALR (Homo sapiens)
Assay: inhibitors of human ALR sulfhydryl oxidase, dose response, biochemical, H2O2 detection, luminescence, cherry-pick (AID 493248)
Conditions: purified ALR, DTT oxidation, H2O2 HRP-luminol luminescence; at 10 µM (top of the series)
About 1,400 (61%) of roughly 2,300 compounds were called active. About 7% were inconclusive and are not listed. So high a share suggests a set chosen from earlier hits. Only a sample is shown. Entries with a potency or affinity are not part of this list.
reportedProperty: activity change, negative = inhibition (%)
// note: answer is a bare numeric in %

Some solved entries appear below for comparison.
COc1cc(C(=S)NC2CCCCC2)ccc1O
99.8
c1ccc2c(c1)CC(N1CCCCC1)c1ccccc1N2 (stereo unspecified)
-14.9
Cc1nc2cccc(C(=O)Oc3ccc([N+](=O)[O-])cc3)c2o1
-34.6
COC(=O)c1ccn(CC(=O)NC2CCCCC2)n1
-5.32
Cc1cccc(-n2c(-c3ccncc3)n[nH]c2=S)c1
-2.76

Now, please, on to the next compound.
INPUT: Consider the compound shown here: COc1cccc2c3c(c(=O)[nH]c12)CCC(C)(C)O3 What is its recorded activity change, negative = inhibition?
OUTPUT: -20.3

----------
Biological target: FAD-linked sulfhydryl oxidase ALR (Homo sapiens) (UniProt P55789)
Sequence (P55789 whole entry, looked up): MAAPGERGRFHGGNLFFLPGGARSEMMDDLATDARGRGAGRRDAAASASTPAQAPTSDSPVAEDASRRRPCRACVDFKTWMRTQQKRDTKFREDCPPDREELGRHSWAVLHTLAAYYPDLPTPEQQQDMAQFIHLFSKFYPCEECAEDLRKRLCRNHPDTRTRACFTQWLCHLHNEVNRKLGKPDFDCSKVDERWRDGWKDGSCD
Assay: inhibitors of human ALR sulfhydryl oxidase, dose response, biochemical, H2O2 detection, luminescence, cherry-pick (AID 493248)
Details: purified ALR, DTT oxidation, H2O2 HRP-luminol luminescence; at 10 µM (top of the series)
In all, about 2,300 compounds went through this assay and about 1,400 (61%) were called active. Roughly 7% stayed inconclusive and do not appear here. So high a share suggests a set chosen from earlier hits. These entries were drawn from the full list. Potency and affinity values are given separately.
Lab note: compare activity change, negative = inhibition against -40%. Equal or greater, write true (1). Smaller, write false (0).

COc1c(C)cccc1C(=O)Nc1ccc(CN2CCCCC2)cc1
true (1)
CCCc1nn2c(N)c(/C=C3\C=Nc4ccccc43)c(=O)nc2s1
true (1)
Cc1nnc(Nc2ccc3c(c2)OCO3)c2ccccc12
true (1)
N#Cc1ccccc1S(=O)(=O)N1CCN(C(=O)Cc2coc3cc(O)ccc23)CC1
false (0)
COc1ccc(C)cc1NCc1ccc(OC)c(C)c1OC
false (0)
CNCc1ccccc1Sc1ccc(O)c(O)c1
false (0)

INPUT: hey, is activity change, negative = inhibition for this one >= -40%? CCCCCC(=O)N/N=C/c1ccc(N(C)C)cc1
OUTPUT: true (1)

----------
Biological target: FAD-linked sulfhydryl oxidase ALR (Homo sapiens) (UniProt P55789)
Test: inhibitors of human ALR sulfhydryl oxidase, dose response, biochemical, H2O2 detection, luminescence, cherry-pick (AID 493248)
Conditions: purified ALR, DTT oxidation, H2O2 HRP-luminol luminescence; at 10 µM (top of the series)
About 1,400 (61%) of roughly 2,300 compounds were called active. Another 7% or so got no clear call; they are omitted. So high a share suggests a set chosen from earlier hits. These entries were drawn from the full list. Entries with a potency or affinity are not part of this list.
reportedProperty: activity change, negative = inhibition (%)
// note: answer is a bare numeric in %

Some solved entries appear below for comparison.
O=C1NN(c2ccccc2)C(=O)/C1=C\c1ccccc1
-5.6
COc1cc(/C=N/Nc2ccc([N+](=O)[O-])cn2)cc(OC)c1O
-73.9

INPUT: Consider the compound shown here: Cc1nc2ccc(NC(=O)c3ccco3)cc2nc1C What is its recorded activity change, negative = inhibition?
OUTPUT: -98.9

INPUT: Consider the compound shown here: COC(=O)c1sccc1NC(=O)c1cc(C)on1 What is its recorded activity change, negative = inhibition?
OUTPUT: -8.04

----------
Documented activity change, negative = inhibition across a set of molecules
Target: FAD-linked sulfhydryl oxidase ALR (Homo sapiens) (UniProt P55789)
Experiment: inhibitors of human ALR sulfhydryl oxidase, dose response, biochemical, H2O2 detection, luminescence, cherry-pick (AID 493248)
Conditions: purified ALR, DTT oxidation, H2O2 HRP-luminol luminescence; at 10 µM (top of the series)
Hit rate of the full screen: of about 2,300 compounds, about 1,400 (61%) were called active. Another 7% or so got no clear call; they are omitted. So high a share suggests a set chosen from earlier hits. The list is a sample of the results. Results with a measured potency or affinity are listed apart.
// note: answer is a bare numeric in %

Some solved entries appear below for comparison.
O=C(CCCC(=O)c1ccccc1)Nc1ccc(O)cc1
182
COc1cc(C(=O)N/N=C/c2cccc(Oc3ccccc3)c2)ccc1O
-2.05
COc1cc(/C=N/Nc2cc(C)nc(N)n2)ccc1O
-108
COc1ccc(CNc2nc3ccccc3n2CCN2CCCCC2)cc1
35.3
COC(=O)[C@@H](N)Cc1ccc(O)c(O)c1
-110
COc1ccc(NCc2ccc3c(c2)OCO3)cc1Cl
-12.5
Cc1cccc(NNC(=O)C(=O)NNc2cccc(C)c2)c1
-2.1
CCNc1nc(OC)nc(N(OC)S(=O)(=O)c2ccc(C)cc2)n1
-55.8
CC(Nc1ccccc1)c1cc(Cl)ccc1O (stereo not given)
-48.4
COC(=O)c1c(N)sc2c1CC(C)(C)OC2
0.616

Now, please, on to the next molecule.
INPUT: Consider the molecule shown here: O=[n+]1cc(-c2cc3ccccc3o2)n([O-])c2c1CCCC2 What is its recorded activity change, negative = inhibition?
OUTPUT: -33.9
